Hey, just so you know, these numbers are from paper PMC12062478.

Consider the following compounds; for each one, report its P2X7 response (% of control).
- system: P2X7 (Homo sapiens, UniProt Q99572)
- Construct: expressed in transfected cells
- Sequence (Q99572 1-595): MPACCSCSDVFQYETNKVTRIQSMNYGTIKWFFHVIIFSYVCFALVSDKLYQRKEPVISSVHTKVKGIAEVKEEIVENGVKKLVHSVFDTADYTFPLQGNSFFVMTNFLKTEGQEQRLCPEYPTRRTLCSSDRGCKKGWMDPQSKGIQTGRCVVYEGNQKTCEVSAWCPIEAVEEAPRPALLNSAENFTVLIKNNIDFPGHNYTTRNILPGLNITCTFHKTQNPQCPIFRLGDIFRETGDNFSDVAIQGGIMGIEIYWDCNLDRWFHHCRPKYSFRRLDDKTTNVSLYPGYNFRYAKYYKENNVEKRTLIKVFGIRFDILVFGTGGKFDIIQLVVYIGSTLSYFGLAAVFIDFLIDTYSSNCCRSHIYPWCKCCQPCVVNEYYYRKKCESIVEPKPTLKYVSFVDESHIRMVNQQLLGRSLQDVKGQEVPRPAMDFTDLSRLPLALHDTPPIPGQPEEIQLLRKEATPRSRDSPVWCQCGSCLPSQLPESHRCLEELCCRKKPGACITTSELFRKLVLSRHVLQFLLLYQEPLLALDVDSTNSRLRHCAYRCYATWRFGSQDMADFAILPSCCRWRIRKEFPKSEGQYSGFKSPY
- assay_comment: ATP-induced YO-PRO-1 dye uptake in HEK-hP2X7 cells
- Assay type: cell-based
- study_conditions: screen for PAM activity; compound 10 µM injected 60 s before ATP

The cases that follow already have their P2X7 response (% of control) on record.
compound	measured_attribute	meas_value
COc1cc2c3c(c1O)-c1cc(N(Cc4ccccc4)Cc4ccccc4)ccc1CC3N(C)CC2 (stereo not drawn)	P2X7 response (% of control)	159.37 % of control
COc1c(OC)c2c3c(nccc3c1OC)C(=O)c1cc(O)ccc1-2	P2X7 response (% of control)	149.00 % of control
Nc1ncnc2c1ncn2C1OCC(O)C1O (stereo not drawn)	P2X7 response (% of control)	129.73 % of control

Give me P2X7 response (% of control) for each of these compounds, listed below.
1. CC(=O)OC(C)C1C2=C(C(=O)C[C@]1(C)O)C(=O)c1c(ccc(-c3ccc4c(c3O)C(=O)C3=C(C4=O)C(C(C)OC(C)=O)[C@@](C)(O)CC3=O)c1O)C2=O (stereo partly drawn)
2. C/C=C/C(=O)O
3. COc1cc(C=O)ccc1O
4. CCCCC[C@@H](O)[C@H]1C(=O)O[C@H](C)[C@@H](O)/C=C/C=C/C=C/C=C/C=C(\C)[C@@H](O)[C@H](O)[C@H](O)C[C@H](O)C[C@H](O)C[C@H](O)C[C@H](O)C[C@@H]1O
5. COc1cc2c3c(c1O)-c1cc(O)ccc1CC3N(C)CC2 (stereo not drawn)
6. COC(=O)/C(=C1/OC(=O)C(c2ccccc2)=C1O)c1ccccc1

[out]
1: 180.28 % of control; 2: 142.15 % of control; 3: 158.27 % of control; 4: 148.84 % of control; 5: 146.91 % of control; 6: 150.3 % of control
